// compounds with reported pKi on Receptor-interacting serine/threonine-protein kinase 1 (Homo sapiens), multi-publication
pKi: −log10 of the molar value.
result_type: pKi

{"compound": "[O-][S@+](c1nc2n(n1)[C@H](c1ccccc1)C[C@@H]2F)C1CC1", "assay_result": 8.40}
{"compound": "[O-][S+](c1nc2n(n1)C(c1ccccc1)CC2)C(F)(F)c1ccccc1 (stereo not drawn)", "assay_result": 6.26}

(P) O=C(c1nc2n(n1)CC[C@H]2c1ccccc1)N1CC(F)(F)C1 (single isomer, unassigned)
(Q) O=C(c1nc2n(n1)C(c1ccccc1)CC2)N1CCC1 (racemic)
(R) O=C(c1nc2n(n1)[C@@H](c1ccccc1)C[C@H]2F)N1CC2C(C1)C2(F)F (mixture of isomers)
(S) [O-][S+](c1nc2n(n1)C(c1cc(F)cc(F)c1)CC2)C(F)F (stereo not drawn)
Put the items in sequence by pKi, from largest down. State the ranking by listing the labels in the requested order.
P, S, R, Q

(I) O=S(=O)(c1nc2n(n1)[C@H](c1ccccc1)C[C@@H]2F)C(F)(F)CO (single isomer, unassigned)
(II) O=C(c1nc2n(n1)[C@H](c1ccccc1)C[C@@H]2F)N(CC(F)F)C1CC1 (racemic)
(III) O=S(=O)(c1nc2n(n1)[C@H](c1cc(F)ccc1F)C[C@@H]2F)[C@@H]1CC1(F)F (single isomer, unassigned)
Order the records, beginning with the lowest pKi and ending with the highest. State the ranking by listing the labels in the requested order.
II, I, III
(II: 6.24, I: 6.57, III: 8.22)

(A) CC(C)c1cnn(-c2nc3n(n2)[C@H](c2ccccc2)C[C@@H]3F)c1 (single isomer, unassigned)
(B) O=C(c1nc2n(n1)[C@@H](c1ccccc1)C[C@H]2F)N1CCC(F)(F)C1 (stereo in doubt)
(C) [O-][S@@+](c1nc2n(n1)[C@H](c1cccc(F)c1)C[C@@H]2F)C(F)F (single isomer, unassigned)
Put the items in sequence by pKi, from largest down. State the ranking by listing the labels in the requested order.
B, A, C
